# target-under-test: T1, Antigen CD66c (CEACAM6; Sino Biological, Inc.) (UniProt P40199 35-320)
# T1 construct: Bought antigen, coated on the ELISA plate; construct not described; also called CECACAM6 (CD66c) antigen; CD66c antigen
# T1 sequence (looked up): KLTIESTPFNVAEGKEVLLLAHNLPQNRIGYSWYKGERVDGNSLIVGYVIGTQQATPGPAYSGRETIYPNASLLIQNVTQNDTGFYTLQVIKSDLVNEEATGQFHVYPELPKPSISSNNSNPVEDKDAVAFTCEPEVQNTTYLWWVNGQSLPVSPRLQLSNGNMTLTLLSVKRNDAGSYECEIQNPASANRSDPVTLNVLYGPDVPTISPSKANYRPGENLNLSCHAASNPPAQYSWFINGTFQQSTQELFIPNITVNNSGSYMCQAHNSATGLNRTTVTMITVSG
# protocol-description: ELISA, CEACAM6 coated 100 ng/well, antibody at 3333.33 ng/ml
value-type: OD 450 nm (OD 450 nm)
Supply the numeric figure in OD 450 nm, leaving out any unit text.

Would you please look over these solved cases?
recombinant humanized anti-CD66c antibody Protein ID 3058 (Vk8 + VH11) (antibody, human IgG1, V domains shown, also called hu 3058; #86) VH: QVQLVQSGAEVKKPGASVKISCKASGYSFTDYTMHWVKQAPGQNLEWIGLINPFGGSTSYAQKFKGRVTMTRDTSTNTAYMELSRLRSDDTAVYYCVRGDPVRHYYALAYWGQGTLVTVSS VL: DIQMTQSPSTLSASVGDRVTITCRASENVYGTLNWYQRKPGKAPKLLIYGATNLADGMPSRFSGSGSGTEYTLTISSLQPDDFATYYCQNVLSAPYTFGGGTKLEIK    3.18
recombinant humanized anti-CD66c antibody Protein ID 2938 (Vk5 + VH7) (antibody, human IgG1, V domains shown, also called hu 2938) VH: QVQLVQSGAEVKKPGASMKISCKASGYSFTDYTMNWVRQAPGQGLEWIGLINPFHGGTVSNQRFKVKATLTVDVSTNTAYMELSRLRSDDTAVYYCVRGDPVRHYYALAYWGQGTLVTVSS VL: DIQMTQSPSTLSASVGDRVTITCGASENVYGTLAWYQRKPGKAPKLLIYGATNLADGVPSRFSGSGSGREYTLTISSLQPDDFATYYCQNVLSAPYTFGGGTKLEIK    3.27

// next item, OD 450 nm requested
IN: Provide measured OD 450 nm value, entry: recombinant humanized anti-CD66c antibody Protein ID 3007 (Vk7 + VH6) (antibody, human IgG1, V domains shown, also called hu 3007; #43) VH: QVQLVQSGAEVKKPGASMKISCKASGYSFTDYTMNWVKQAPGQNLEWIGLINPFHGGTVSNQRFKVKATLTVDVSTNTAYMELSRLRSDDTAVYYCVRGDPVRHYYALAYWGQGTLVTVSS VL: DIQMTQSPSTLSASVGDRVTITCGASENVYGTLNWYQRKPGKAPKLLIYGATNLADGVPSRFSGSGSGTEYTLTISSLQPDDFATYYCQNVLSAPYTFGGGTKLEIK
OUT: 3.24
